test: PAMPA-BBB (parallel artificial membrane permeability assay, porcine polar brain lipid extract); type: in vitro ADME; details: pig, PAMPA, pH 7.4, PAMPA-BBB, pH 7.4, 37 °C, 4 h, Pe in cm/s, n = 9; read-out: log Pe (converted)
quantity kind: Papp at 4 h, 100 µM (×10⁻⁶ cm/s)
Reply with just the number (in ×10⁻⁶ cm/s).

## Task Item OC[C@H](C/C=C/c1ccc(O)cc1)[C@H](O)c1ccc(O)cc1 [Compound 6, galanganol B] has what recorded Papp at 4 h, 100 µM?
## Result 0.724

###

assay: PAMPA-BBB (parallel artificial membrane permeability assay, porcine polar brain lipid extract); assay type: in vitro ADME; conditions: cutoff log Pe −6.0
quantity kind: PAMPA-BBB (blood–brain barrier permeability)

>>> measurement("OC[C@H](C/C=C/c1ccc(O)cc1)[C@H](O)c1ccc(O)cc1")
"−"
>>> measurement("OC[C@@H](C/C=C/c1ccc(O)cc1)[C@H](O)c1ccc(O)cc1")
"−"
>>> measurement("OC/C=C/c1ccc(O)cc1 [Compound 2, trans-p-coumaryl-alcohol]")
"+"
>>> measurement("O=Cc1ccc(O)cc1")
"+"
